The reported measurements were obtained from patent US11970494B2.

# Target Or System: JAK2 (JH1 domain-catalytic, Y1007F,Y1008F) kinase (Homo sapiens, UniProt O60674, Y1007F/Y1008F)
# Construct: made in house; host or cells: transiently transfected HEK293 cells
# Sequence (O60674 849-1124 Y1007F/Y1008F limits assumed): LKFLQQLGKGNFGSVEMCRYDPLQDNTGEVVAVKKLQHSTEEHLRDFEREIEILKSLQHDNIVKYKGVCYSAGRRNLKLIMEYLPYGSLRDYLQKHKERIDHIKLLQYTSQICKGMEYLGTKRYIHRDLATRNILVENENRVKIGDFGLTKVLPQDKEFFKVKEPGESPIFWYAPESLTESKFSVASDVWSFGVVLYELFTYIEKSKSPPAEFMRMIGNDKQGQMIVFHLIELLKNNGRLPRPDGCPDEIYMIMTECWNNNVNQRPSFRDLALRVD
# Procedure Details: JAK2 Binding Assay (JAK2 JH1 Domain Binding Assay)
# Run Parameters: JAK2 JH1 domain binding, qPCR detection; read-out: JAK2 Kd
Value Type: Kd

Answered cases to consult:
# Compound, Assay Value
records = [
    ("Cn1cc(C(F)(F)F)cc(Nc2nc3ncc(Oc4ccnc(NC(=O)O[C@H]5CCOC5)c4)c(C#N)c3n2C)c1=O", "< 10 nM"),
    ("Cn1cc(C(F)(F)F)cc(Nc2nc3ncc(Oc4ccnc(NC(=O)C[C@@H]5CCCCO5)c4)c(C#N)c3n2C)c1=O (single isomer, unassigned)", "< 10 nM"),
    ("COc1c(Oc2ccnc(NC(C)=O)c2)cnc2nc(Nc3cc(C(F)(F)F)cn(CCO)c3=O)n(C)c12", "< 10 nM"),
]

From here, focus on the item given below.
In: Could you tell me which Kd is on file for `Cn1cc(C(F)(F)F)cc(Nc2nc3ncc(Oc4ccnc(NC(=O)C[C@H]5CCCCO5)c4)c(C#N)c3n2C)c1=O` ?
Out: < 10 nM

---

This section presents compounds with their documented solubility at 2 h values.
# Procedure Details: Kinetic Solubility Assay
# Format: physicochemical
# Run Parameters: aqueous buffer, kinetic from dmso stock, kinetic solubility in PBS (pH 4.0 and pH 7.4 in method; pH of table values not stated), RT

# Compound, Assay Value
data = [
    ("CN(C)C(=O)Nc1cc(Oc2cnc3nc(Nc4cc5n(n4)CCC54CCC4)n(C)c3c2C#N)ccn1 [Example I-56]", "9 to 100 µM"),
    ("COCC(=O)Nc1cc(Oc2cnc3nc(Nc4cc(C(F)(F)F)cn(C)c4=O)n(C)c3c2Cl)ccn1 [Example I-75]", "0.1 to 9 µM"),
    ("Cn1cc(C(F)(F)F)cc(Nc2nc3ncc(Oc4ccnc(NC(=O)OCCN5CCOCC5)c4)c(C#N)c3n2C)c1=O [Example I-15]", "9 to 100 µM"),
]

From here, focus on the item given below.
In: Could you tell me which solubility at 2 h is on file for CC(=O)Nc1cc(Oc2cnc3nc(Nc4cc(C(F)(F)F)cn(C)c4=O)n(C)c3c2Cl)c(F)cn1 [Example I-88] ?
Out: 0.1 to 9 µM

---

# Procedure Details: Hepatocyte Stability Assay, rat hepatocytes
# Format: in vitro ADME
# Run Parameters: cryopreserved hepatocytes, read-out: Rat Heps CLint
This section presents compounds with their documented CLint scaled at 1 μM values.

Answered cases to consult:
# Compound, Assay Value
data = [
    ("COCC(=O)Nc1cc(Oc2cnc3nc(Nc4cc(C(F)(F)F)cn(C)c4=O)n(C)c3c2Cl)ccn1 [Example I-75]", "< 1.02 L/h/kg"),
    ("Cn1cc(C(F)(F)F)cc(Nc2nc3ncc(Oc4ccnc(NC(=O)OCCN5CCOCC5)c4)c(C#N)c3n2C)c1=O [Example I-15]", "< 1.02 L/h/kg"),
    ("COC(=O)Nc1cc(Oc2cnc3nc(Nc4cc(C(F)(F)F)cn(C)c4=O)n(C)c3c2C#N)ccn1 [Example I-3]", "< 1.02 L/h/kg"),
    ("CN(C)C(=O)Nc1cc(Oc2cnc3nc(Nc4cc5n(n4)CCC54CCC4)n(C)c3c2C#N)ccn1 [Example I-56]", "1.02 to 2.1 L/h/kg"),
]

From here, focus on the item given below.
In: Could you tell me which CLint scaled at 1 μM is on file for CO[C@H]1CCN(C(=O)Nc2cc(Oc3cnc4nc(Nc5cc(C(F)(F)F)cn(C)c5=O)n(C)c4c3C#N)ccn2)C1 [Example I-14] ?
Out: < 1.02 L/h/kg

---

This section presents compounds with their documented CLint scaled at 1 μM values.
# Procedure Details: Hepatocyte Stability Assay, human hepatocytes
# Assay type: in vitro ADME
# Run Parameters: cryopreserved hepatocytes, read-out: Human Heps CLint

Answered cases to consult:
# Compound, CLint scaled at 1 μM
records = [
    ("Cn1c(Nc2cc3n(n2)CCOC3(C)C)nc2ncc(Oc3ccnc(NC(=O)O[C@@H]4CCOC4)c3)c(C#N)c21 [Example I-48]", "6 to 12 mL/min/kg"),
    ("COCC(=O)Nc1cc(Oc2cnc3nc(Nc4cc(C(F)(F)F)cn(C)c4=O)n(C)c3c2Cl)ccn1 [Example I-75]", "12 to 20 mL/min/kg"),
]

In: Could you tell me which CLint scaled at 1 μM is on file for CO[C@H]1CCN(C(=O)Nc2cc(Oc3cnc4nc(Nc5cc(C(F)(F)F)cn(C)c5=O)n(C)c4c3C#N)ccn2)C1 [Example I-14] ?
Out: ≤ 6 mL/min/kg

---

# Target Or System: JAK2 (JH1 domain-catalytic, Y1007F,Y1008F) kinase (Homo sapiens, UniProt O60674, Y1007F/Y1008F)
# Construct: made in house; host or cells: transiently transfected HEK293 cells
# Procedure Details: JAK2 Binding Assay (JAK2 JH1 Domain Binding Assay)
# Run Parameters: JAK2 JH1 domain binding, qPCR detection; read-out: JAK2 Kd
pKd: −log10 of the molar value.
Value Type: pKd

Answered cases to consult:
# Molecule, Assay Value
rows = [
    ("COCC(=O)Nc1cc(Oc2cnc3nc(Nc4cc(C(F)(F)F)n(C5CC6(CCOCC6)C5)n4)n(C)c3c2Cl)ccn1 [Example I-107]", "7.30 to 8.00"),
    ("Cn1cc(C(F)(F)F)cc(Nc2nc3ncc(Oc4ccnc(NC(=O)NC5COC5)c4)c(C#N)c3n2C)c1=O [Example I-123]", "> 8.00"),
    ("CN1CCN(C(=O)Nc2cc(Oc3cnc4nc(Nc5cc6n(n5)CCCC6(F)F)n(C)c4c3C#N)ccn2)CC1 [Example I-24]", "7.30 to 8.00"),
]

In: Could you tell me which pKd is on file for Cn1c(Nc2cc3n(n2)CCCC3(F)F)nc2ncc(Oc3ccnc(NC(=O)N4CCOCC4)c3)c(C#N)c21 [Example I-25] ?
Out: 7.30 to 8.00

In: Now consider CN1CCN(C(=O)Nc2cc(Oc3cnc4nc(Nc5cc(C(F)(F)F)cn(C)c5=O)n(C)c4c3C#N)ccn2)CC1 [Example I-6] .
Out: > 8.00

In: Now consider COCCOC(=O)Nc1cc(Oc2cnc3nc(Nc4cc(C(F)(F)F)cn(C)c4=O)n(C)c3c2C#N)ccn1 [Example I-12] .
Out: > 8.00

In: Now consider CC(=O)Nc1cc(Oc2cnc3nc(Nc4cc5n(n4)CCCC5(F)F)n(C)c3c2C#N)ccn1 [Example I-93] .
Out: > 8.00

---

# Target Or System: JAK2 (JH1 domain-catalytic, Y1007F,Y1008F) kinase (Homo sapiens, UniProt O60674, Y1007F/Y1008F)
# Construct: made in house; host or cells: transiently transfected HEK293 cells
# Procedure Details: JAK2 Binding Assay (JAK2 JH1 Domain Binding Assay)
# Run Parameters: JAK2 JH1 domain binding, qPCR detection; read-out: JAK2 Kd
This section presents compounds with their documented Kd values.

Answered cases to consult:
# Compound, Kd
rows = [
    ("CC(=O)Nc1cc(Oc2cnc3nc(Nc4cc(C(F)(F)F)n(C5CC6(COC6)C5)n4)n(C)c3c2C#N)ccn1", "10 to 50 nM"),
    ("CC(=O)Nc1cc(Oc2cnc3nc(Nc4cc(C(C)(C)C(F)(F)F)on4)n(C)c3c2C#N)ccn1", "> 5000 nM"),
    ("CO[C@H]1CCN(C(=O)Nc2cc(Oc3cnc4nc(Nc5cc6n(n5)CCC65CCC5)n(C)c4c3C#N)ccn2)C1", "< 10 nM"),
    ("CN1CCO[C@H](CC(=O)Nc2cc(Oc3cnc4nc(Nc5cc(C(F)(F)F)cn(C)c5=O)n(C)c4c3C#N)ccn2)C1 (single isomer, unassigned)", "< 10 nM"),
    ("Cn1cc(C(F)(F)F)cc(Nc2nc3ncc(Oc4ccnc(NC(=O)CNCCF)c4)c(Cl)c3n2C)c1=O", "< 10 nM"),
    ("COCC(=O)Nc1cc(Oc2cnc3nc(Nc4cc(C(F)(F)F)cn(C)c4=O)n(C)c3c2C#N)ccn1", "< 10 nM"),
    ("CN(C)C(=O)Nc1cc(Oc2cnc3nc(Nc4cc5n(n4)CC(C)(C)OC5)n(C)c3c2C#N)ccn1", "10 to 50 nM"),
    ("CN(C)CCOC(=O)Nc1cc(Oc2cnc3nc(Nc4cc5n(n4)CCCC5(F)F)n(C)c3c2C#N)ccn1", "< 10 nM"),
    ("Cn1cc(C(F)(F)F)cc(Nc2nc3ncc(Oc4ccnc(NC(=O)OC5COC5)c4)c(C#N)c3n2C)c1=O", "< 10 nM"),
    ("COC1CN(C(=O)Nc2cc(Oc3cnc4nc(Nc5cc6n(n5)CCC65CCC5)n(C)c4c3C#N)ccn2)C1", "< 10 nM"),
]

In: Could you tell me which Kd is on file for `Cn1c(Nc2cc3n(n2)CCCC3(F)F)nc2ncc(Oc3ccnc(NC(=O)O[C@@H]4CCOC4)c3)c(C#N)c21` ?
Out: < 10 nM

In: Now consider `Cn1cc(C(F)(F)F)cc(Nc2nc3ncc(Oc4ccnc(NC(=O)NC5CC5)c4)c(C#N)c3n2C)c1=O` .
Out: < 10 nM
